system-under-test: rat NaP2b (SLC34A2) (Rattus norvegicus)
Construct: host or cells: HEK293
experimental-details: Inhibition of NaP2b-mediated Pi (33P) uptake in transfected HEK293 cells, rat NaP2b
Type: cell-based
recorded-conditions: 33P Pi uptake, 0.1 mM phosphate, value given as pIC50 range
For each of the compounds below, state its IC50.

molecule: CN(C)C(=O)C1CCN(CCN(C)C(=O)c2cccc(C(=O)Nc3ccc(N4CCCCC4)cc3-c3cc(C(=O)N[C@H]4CCCc5ccccc54)ccn3)c2)CC1
data-value: 1 to 7.94 µM

Batch of 3 compounds: report IC50 for each.
1. O=C(O)CCCSCc1cccc(C(=O)Nc2ccc(N3CCCCC3)cc2-c2cc(C(=O)NCc3cccc(C(F)(F)F)c3)ccn2)c1
2. CCN(CC)c1ccc(NC(=O)c2cccc(CCCOCCOCCOCCOCCOCCOCCC(=O)O)c2)c(-c2cc(C(=O)NCc3cccc(C(F)(F)F)c3)ccn2)c1
3. CCN(CC)c1ccc(NC(=O)c2cccc(CSCCOCCOCCOCCOCCC(=O)NC(CO)(CO)CO)c2)c(-c2cc(C(=O)NCc3cccc(C(F)(F)F)c3)ccn2)c1

RESULT:
1. 1 to 7.94 µM
2. 1 to 7.94 µM
3. 1 to 7.94 µM

###

system-under-test: rat NaP2b (SLC34A2) (Rattus norvegicus)
Construct: host or cells: HEK293
experimental-details: Inhibition of NaP2b-mediated Pi (33P) uptake in transfected HEK293 cells, rat NaP2b
Assay type: cell-based
recorded-conditions: 33P Pi uptake, 0.1 mM phosphate, value given as pIC50 range
measurement-kind: IC50

molecule: CN(CCn1ccnc1)C(=O)c1cccc(C(=O)Nc2ccc(N3CCCCC3)cc2-c2cc(C(=O)NCc3cccc(C(F)(F)F)c3)ccn2)c1
system-under-test: rat NaP2b (SLC34A2) (Rattus norvegicus)
IC50: 1 to 7.94 µM

molecule: O=C(NCc1cccc(C(F)(F)F)c1)c1ccnc(-c2cc(N3CCCCC3)ccc2NC(=O)c2cccc(CSc3ncc(C(=O)O)c(O)n3)c2)c1
system-under-test: rat NaP2b (SLC34A2) (Rattus norvegicus)
IC50: 1 to 7.94 µM

Look up IC50 for the entries below, preserving their order.
1. O=C(O)CCOCCOCCOCCNC(=O)Cc1cccc(SCc2cccc(C(=O)Nc3ccc(N4CCCCC4)cc3-c3cc(C(=O)NCc4cccc(C(F)(F)F)c4)ccn3)c2)c1
2. O=C(O)CCSCc1cccc(C(=O)Nc2ccc(N3CCCCC3)cc2-c2cc(C(=O)NCc3cc(C(F)(F)F)ccc3F)ccn2)c1
3. CN(CCN1CCOCC1)C(=O)Nc1cccc(C(=O)Nc2ccc(N3CCCCC3)cc2-c2cc(C(=O)N[C@H]3CCCc4ccccc43)ccn2)c1
4. CCN(CC)c1ccc(NC(=O)c2cccc(C(=O)N(C)CCN(CCOC)CCOCCOCCOCCC(=O)N(C)CCN3CCOCC3)c2)c(-c2cc(C(=O)NCc3cccc(C(F)(F)F)c3)ccn2)c1
5. O=C(O)CCSCc1cccc(C(=O)Nc2ccc(N3CCCCC3)cc2-c2cc(C(=O)NC(c3ccccc3)c3ccccc3)ccn2)c1
6. CC(=O)N1CCN(Cc2cccc(C(=O)Nc3ccc(N4CCCCC4)cc3-c3cc(C(=O)NCc4cccc(C(F)(F)F)c4)ccn3)n2)CC1
7. CN(CCc1ccccn1)C(=O)c1cccc(C(=O)Nc2ccc(N3CCCCC3)cc2-c2cc(C(=O)NCc3cccc(C(F)(F)F)c3)ccn2)c1

RESULT:
1 to 7.94 µM
1 to 7.94 µM
10 to 31.6 µM
1 to 7.94 µM
1 to 7.94 µM
1 to 7.94 µM
1 to 7.94 µM

###

experimental-details: Determination of compound Cmax and AUC after oral gavage (plasma LC-MS/MS)
Assay type: in vivo, Sprague-Dawley rats
recorded-conditions: Sprague-Dawley, rat, plasma, po, Structure (I) examples, Table 15, actual oral dose 3-15 mg/kg, plasma 0.5-4 h
Description: Sprague-Dawley rats were orally gavaged with test article at a nominal dose of 2.5 or 10 mg/kg and blood was collected at 0.5, 1, 2 and 4 h. Blood samples were processed to plasma using K2EDTA as an anticoaglulant. […] Supernatants were analyzed by LC-MS/MS and compound concentrations were determined by interpolation from a standard curve prepared in plasma. All compounds were orally dosed at the dosage shown, and pharmacokinetic parameters determined. […]
measurement-kind: Cmax

Completed entries (count: 3):
molecule: COCCNC(=O)[C@H]1CCCN(C(=O)c2cccc(C(=O)Nc3ccc(N4CCCCC4)cc3-c3cc(C(=O)N[C@H]4CCCc5ccccc54)ccn3)c2)C1 [Example 254]
Cmax: < 10 ng/mL
--
molecule: CN(CCN1CCC[C@H]1C(=O)N(C)CCOCCOCCOCCC(=O)O)C(=O)c1cccc(C(=O)Nc2ccc(N3CCCCC3)cc2-c2cc(C(=O)N[C@H]3CCCc4ccccc43)ccn2)c1 [Example 191]
Cmax: < 10 ng/mL
--
molecule: O=C(O)CCOCCOCCOCCOCCCc1cccc(C(=O)Nc2ccc(N3CCCCC3)cc2-c2cc(C(=O)N[C@H]3CCCc4ccccc43)ccn2)c1 [Example 252]
Cmax: < 30 ng/mL

Then there is this molecule:
QUERY: Let me know recorded Cmax for CCN(CC)c1ccc(NC(=O)c2cccc(CSCCOCCOCCOCCOCCOCCOCCOCCOCCC(=O)O)c2)c(-c2cc(C(=O)N[C@H]3CCCc4ccccc43)ccn2)c1 [Example 161] , thanks.
RESULT: < 10 ng/mL

###

For each entry below, report its pIC50 value.
system-under-test: rat NaP2b (SLC34A2) (Rattus norvegicus, UniProt Q9JJ09)
Construct: host or cells: HEK293
Sequence (Q9JJ09 1-695): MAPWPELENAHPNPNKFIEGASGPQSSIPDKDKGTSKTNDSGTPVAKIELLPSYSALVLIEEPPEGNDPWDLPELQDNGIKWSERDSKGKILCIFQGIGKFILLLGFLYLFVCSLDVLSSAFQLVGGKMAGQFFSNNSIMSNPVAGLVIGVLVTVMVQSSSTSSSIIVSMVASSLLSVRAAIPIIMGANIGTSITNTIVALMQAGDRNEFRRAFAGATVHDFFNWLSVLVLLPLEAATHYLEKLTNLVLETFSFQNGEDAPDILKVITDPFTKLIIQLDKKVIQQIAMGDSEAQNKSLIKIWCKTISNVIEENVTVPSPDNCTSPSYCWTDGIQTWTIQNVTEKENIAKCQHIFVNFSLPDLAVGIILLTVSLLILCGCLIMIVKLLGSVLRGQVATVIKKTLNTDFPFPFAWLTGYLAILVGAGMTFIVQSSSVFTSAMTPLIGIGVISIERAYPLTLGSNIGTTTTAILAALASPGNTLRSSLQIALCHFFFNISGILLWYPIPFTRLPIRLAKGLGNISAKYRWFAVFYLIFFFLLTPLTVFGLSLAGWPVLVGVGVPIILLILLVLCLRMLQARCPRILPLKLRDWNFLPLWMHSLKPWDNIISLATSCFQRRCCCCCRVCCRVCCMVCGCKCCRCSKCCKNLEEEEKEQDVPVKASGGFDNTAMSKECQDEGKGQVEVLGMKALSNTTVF
experimental-details: Inhibition of NaP2b-mediated Pi (33P) uptake in transfected HEK293 cells, rat NaP2b
Assay type: cell-based
recorded-conditions: 33P Pi uptake, 0.1 mM phosphate, value given as pIC50 range
pIC50: −log10 of the molar value.

compound: COCCOCCOCCOCCOCCOCCOCCOC(=O)N1CCCN(CCN(C)C(=O)c2cccc(C(=O)Nc3ccc(N4CCCCC4)cc3-c3cc(C(=O)N[C@H]4CCCc5ccccc54)ccn3)c2)CC1 [Example 214]
system-under-test: rat NaP2b (SLC34A2) (Rattus norvegicus, UniProt Q9JJ09)
pIC50: 5.10 to 6.00
--
compound: CN(CCOCCO)C(=O)c1cccc(C(=O)Nc2ccc(N3CCCCC3)cc2-c2cc(C(=O)NCc3cccc(C(F)(F)F)c3)ccn2)c1 [Example 4.3]
system-under-test: rat NaP2b (SLC34A2) (Rattus norvegicus, UniProt Q9JJ09)
pIC50: 5.10 to 6.00

Read the next record carefully.
QUERY: Tell me its pIC50 given O=C(CCSCc1cccc(C(=O)Nc2ccc(N3CCCCC3)cc2-c2cc(C(=O)NCc3cccc(C(F)(F)F)c3)ccn2)c1)NCCN1CCOCC1 [Example 4.16] as the entry.
RESULT: 4.50 to 5.00

###

Exercise: for every item that follows, state its recorded IC50.
system-under-test: rat NaP2b (SLC34A2) (Rattus norvegicus)
Construct: host or cells: HEK293
Sequence (Q9JJ09 1-695): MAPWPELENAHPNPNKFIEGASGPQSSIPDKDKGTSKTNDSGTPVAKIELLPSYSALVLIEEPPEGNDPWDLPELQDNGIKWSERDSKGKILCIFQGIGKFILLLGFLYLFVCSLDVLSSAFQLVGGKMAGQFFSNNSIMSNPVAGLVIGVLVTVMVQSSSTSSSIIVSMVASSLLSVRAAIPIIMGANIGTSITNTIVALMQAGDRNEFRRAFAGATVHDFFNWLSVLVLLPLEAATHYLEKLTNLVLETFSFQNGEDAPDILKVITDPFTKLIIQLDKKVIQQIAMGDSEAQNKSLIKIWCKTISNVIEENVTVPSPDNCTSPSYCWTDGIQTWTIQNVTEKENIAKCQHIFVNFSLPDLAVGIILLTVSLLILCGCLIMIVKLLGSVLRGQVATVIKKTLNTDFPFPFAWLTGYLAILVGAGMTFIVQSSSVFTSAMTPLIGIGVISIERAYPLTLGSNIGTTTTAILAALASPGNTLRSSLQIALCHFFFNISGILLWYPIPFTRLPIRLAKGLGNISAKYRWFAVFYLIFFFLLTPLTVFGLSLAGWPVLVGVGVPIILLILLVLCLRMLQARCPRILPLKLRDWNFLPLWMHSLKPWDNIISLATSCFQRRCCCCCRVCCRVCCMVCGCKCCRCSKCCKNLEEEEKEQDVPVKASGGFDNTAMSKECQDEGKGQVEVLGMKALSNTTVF
experimental-details: Inhibition of NaP2b-mediated Pi (33P) uptake in transfected HEK293 cells, rat NaP2b
Format: cell-based
recorded-conditions: 33P Pi uptake, 0.1 mM phosphate, value given as pIC50 range

Example cases with answers are listed next.
molecule: Cc1ccc(Nc2ccnc(-c3cc(N4CCCCC4)ccc3NC(=O)c3cccc(CSCCC(=O)O)c3)c2)cc1C [Example 71]
IC50: 10 to 31.6 µM

molecule: COCCN(C)CCN(C)C(=O)c1cccc(C(=O)Nc2ccc(N3CCCCC3)cc2-c2cc(C(=O)NCc3cccc(C(F)(F)F)c3)ccn2)c1 [Example 4.20.2]
IC50: 1 to 7.94 µM

molecule: CCN(CC)c1ccc(NC(=O)c2cccc(CSCCOCCOCCOCCOCCC(=O)O)c2)c(-c2cc(C(=O)N[C@H]3CCCc4ccccc43)ccn2)c1 [Example 157]
IC50: < 1 µM

molecule: CCN(CC)c1ccc(NC(=O)c2cccc(C(=O)N(C)CCN3CCN(C(=O)OCCOCCOCCOCCOCCOCCOCCOC)CC3)c2)c(-c2cc(C(=O)N[C@H]3CCCc4ccccc43)ccn2)c1 [Example 230]
IC50: 1 to 7.94 µM

molecule: O=C(O)CCSCc1cccc(C(=O)Nc2ccc(N3CCCCC3)cc2-c2cc(C(=O)NCc3ccc(C(F)(F)F)nc3)ccn2)c1 [Example 1.2]
IC50: 10 to 31.6 µM

Provide each entry's IC50 from the list below.
1. O=C(O)CCSCc1cccc(C(=O)Nc2ccc(N3CCCCC3)cc2-c2cc(C(=O)NCc3ccc(Oc4ccccc4)cc3)ccn2)c1 [Example 1.40]
2. COCCNC(=O)c1cccc(SCc2cccc(C(=O)Nc3ccc(N4CCCCC4)cc3-c3cc(C(=O)NCc4cccc(C(F)(F)F)c4)ccn3)c2)c1 [Example 10.5]

RESULT:
["1 to 7.94 µM", "10 to 31.6 µM"]
